Cited source: ChEMBL document CHEMBL2218924

residual activity for assorted compounds
System Tested: Mast/stem cell growth factor receptor Kit (Homo sapiens) (UniProt P10721)
Sequence (P10721 whole entry): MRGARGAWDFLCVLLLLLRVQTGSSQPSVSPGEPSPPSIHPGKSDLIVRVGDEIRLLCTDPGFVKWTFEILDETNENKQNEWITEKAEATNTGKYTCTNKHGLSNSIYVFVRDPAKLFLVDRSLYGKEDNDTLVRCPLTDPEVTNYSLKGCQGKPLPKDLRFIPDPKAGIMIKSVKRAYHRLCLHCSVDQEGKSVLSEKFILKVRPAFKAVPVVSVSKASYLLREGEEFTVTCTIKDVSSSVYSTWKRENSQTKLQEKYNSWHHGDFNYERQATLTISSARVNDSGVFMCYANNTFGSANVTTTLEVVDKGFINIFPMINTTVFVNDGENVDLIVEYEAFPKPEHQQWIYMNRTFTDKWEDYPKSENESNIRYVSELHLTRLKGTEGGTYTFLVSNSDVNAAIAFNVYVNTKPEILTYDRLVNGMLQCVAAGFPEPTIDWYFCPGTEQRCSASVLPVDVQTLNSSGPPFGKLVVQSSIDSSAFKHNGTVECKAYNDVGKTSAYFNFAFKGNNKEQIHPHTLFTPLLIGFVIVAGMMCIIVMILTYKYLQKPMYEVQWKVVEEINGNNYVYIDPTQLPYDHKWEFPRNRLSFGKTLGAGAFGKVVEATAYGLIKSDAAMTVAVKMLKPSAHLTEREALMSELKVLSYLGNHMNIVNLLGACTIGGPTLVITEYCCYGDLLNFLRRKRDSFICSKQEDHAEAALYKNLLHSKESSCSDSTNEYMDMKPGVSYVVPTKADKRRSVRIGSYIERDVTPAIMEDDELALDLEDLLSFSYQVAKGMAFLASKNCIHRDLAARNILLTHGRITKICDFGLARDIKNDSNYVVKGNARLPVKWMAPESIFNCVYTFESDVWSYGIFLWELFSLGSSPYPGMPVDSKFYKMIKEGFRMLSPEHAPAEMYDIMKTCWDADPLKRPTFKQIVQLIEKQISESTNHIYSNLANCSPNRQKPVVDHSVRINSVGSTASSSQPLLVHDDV
Condition Parameters: at 10 µM
Measured Property: residual activity (%)

Cc1nc2cc3nc(-c4cccs4)cnc3cc2n1C	13
O=C(Nc1cccc(Nc2cc(Nc3cccc(C(F)(F)F)c3)ncn2)c1)C1CC1	100
O=C1Nc2ccc(Br)cc2/C1=C\c1cc2c([nH]1)CCCC2	43

* * *

System Tested: Calcium/calmodulin-dependent protein kinase type 1 (Homo sapiens) (UniProt Q14012)
Sequence (Q14012 whole entry, looked up): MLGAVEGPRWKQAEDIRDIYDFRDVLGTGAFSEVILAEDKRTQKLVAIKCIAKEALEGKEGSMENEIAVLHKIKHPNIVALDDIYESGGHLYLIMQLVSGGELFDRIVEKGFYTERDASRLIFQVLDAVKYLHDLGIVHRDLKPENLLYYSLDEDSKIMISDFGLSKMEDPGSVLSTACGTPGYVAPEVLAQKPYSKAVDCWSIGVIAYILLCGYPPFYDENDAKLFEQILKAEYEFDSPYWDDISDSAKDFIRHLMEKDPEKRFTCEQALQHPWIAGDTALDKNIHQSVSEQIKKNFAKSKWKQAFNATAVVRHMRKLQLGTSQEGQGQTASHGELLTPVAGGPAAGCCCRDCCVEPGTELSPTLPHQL
Condition Parameters: at 10 µM
Measured Property: residual activity

N#C/C(=C(\N)Sc1ccc(N)cc1)c1ccccc1C(F)(F)F	95%
O=C(O)c1ccc2c3c1cccc3c(=O)n1c3ccccc3nc21	117%
O=C(Nc1cccc(Nc2cc(Nc3cccc(C(F)(F)F)c3)ncn2)c1)C1CC1	57%
O=c1cc(-c2cccc3c2Sc2ccccc2S3)oc(N2CCOCC2)c1	87%
N#Cc1cnc2cnc(NCc3cccnc3)cc2c1Nc1ccc(F)c(Cl)c1	26%
Cc1nc(-c2ccccc2)c(-c2ccncc2)o1	89%
CN(C)CCCn1cc(C2=C(c3c[nH]c4ccccc34)C(=O)NC2=O)c2ccccc21	49%
NC(=O)c1ccc2[nH]c(-c3ccc(Oc4ccc(Cl)cc4)cc3)nc2c1	92%
CC(C)n1cnc2/c(=N/c3cccc(Cl)c3)nc(NCCO)[nH]c21	71%
O=C1NC(=O)/C(=C\c2ccc3nccnc3c2)S1	80%
CCN(CC)CCCCN1c2ccccc2Oc2ccc(Cl)cc21	89%
COc1cc2ncnc(Nc3ccc(O)c(Br)c3)c2cc1OC	61%
O=c1c2ccccc2[nH]c(=S)n1CCN1CCC(=C(c2ccc(F)cc2)c2ccc(F)cc2)CC1	113%
O=C1NC(=O)/C(=C/c2ccc3c(c2)OC(F)(F)O3)S1	83%
CCN(CC)C(=O)c1ccc(Nc2nc(OCC3CCCCC3)c3nc[nH]c3n2)cc1	19%
COc1ccc(CNc2nc(N(CCO)CCO)nc3c2ncn3C(C)C)cc1	55%
COc1cccc(-c2cc(=O)c3ccccc3o2)c1N	82%
COc1ccc(OC)c2c(=S)c3ccccc3[nH]c12	77%
O=C1NC(=O)c2cc(Nc3ccc(F)cc3)c(Nc3ccc(F)cc3)cc21	71%
COc1cc2ncnc(Nc3ccc(Oc4ccccc4)cc3)c2cc1OC	76%
c1ccc(-c2n[nH]cc2-c2ccnc3ccccc23)nc1	83%
C[C@@H](N)[C@H]1CC[C@H](C(=O)Nc2ccncc2)CC1	125%
CC(=O)O/N=C1\C(=C2\C(=O)Nc3cc(Br)ccc32)Nc2ccccc21	50%
CO[C@H]1C[C@@H]2CC[C@@H](C)[C@@](O)(O2)C(=O)C(=O)N2CCCC[C@H]2C(=O)O[C@H]([C@H](C)C[C@@H]2CC[C@@H](O)[C@H](OC)C2)CC(=O)[C@H](C)/C=C(\C)[C@@H](O)[C@@H](OC)C(=O)[C@H](C)C[C@H](C)/C=C/C=C/C=C/1C	84%
CCOc1cc2ncnc(Nc3cccc(Br)c3)c2cc1OCC	84%
COc1cc2ncnc(Nc3ccc(NC(=O)c4ccccc4)cc3)c2cc1OC	41%
CNc1cc2c(Nc3cccc(Br)c3)ncnc2cn1	65%
CO[C@H]1[C@@H](OC)C[C@H](C)[C@@H](OC)C2=CC(=O)C=C(NC(=O)/C(C)=C/C=C/[C@H](OC)[C@@H](OC(N)=O)/C(C)=C/[C@@H]1C)C2=O	88%
CO[C@@H]1[C@H](N(C)C(=O)c2ccccc2)C[C@H]2O[C@]1(C)n1c3ccccc3c3c4c(c5c6ccccc6n2c5c31)C(=O)NC4	29%
c1ccc2c(-c3ccncc3)c[nH]c2c1	84%
CC#CC(=O)Nc1cc2c(Nc3ccc(F)c(Cl)c3)ncnc2cn1	80%
